System: SK-MEL-2 melanoma
assay_remarks: NCI tumour cell line growth inhibition, 48 h; in the data active = GI50 below about 0.43 µM; inactive = the rest
Log the outcome using a class from 1 for active, 0 for inactive

Example entries and their recorded answers appear below.
- compound: "CN(Cc1cnc(N)nc1N)c1ccc(C(=O)O)cc1"
  group: 0
- compound: "O=C(/C=C1\\C(=O)N(Cc2ccc([N+](=O)[O-])cc2)c2ccccc21)c1ccc(OCCN2CCCCC2)cc1"
  group: 0
- compound: "Oc1c(C(Nc2cccc3ccccc23)c2ccccc2)ccc2cccnc12 (centres undefined)"
  group: 0
- compound: "C=C1C(=O)O[C@H]2[C@H]1CC/C(Cn1cc(CNCCc3c[nH]c4ccc(Cl)cc34)nn1)=C\\CC[C@@]1(C)O[C@@H]21"
  group: 0
- compound: "CN(CCC#N)c1ccc(/C=C(\\C#N)c2cccc(C(F)(F)F)c2)cc1"
  group: 0
- compound: "COc1ccc(-c2nn(-c3ccc(NC(=O)c4ccc(Cl)c(C(F)(F)F)c4)cc3)cc2-c2ccncc2)cc1Cl"
  group: 1
- compound: "O=C(/C=C/c1ccccc1)c1c[nH]c2ccccc2c1=O"
  group: 0
- compound: "FC(F)(F)c1nc2ccc(SSc3ccc4nc(C(F)(F)F)[nH]c4c3)cc2[nH]1"
  group: 0

Consider the record given below.
## Task Recorded call for `[C-]#[O+].[Cl][Sn]([Cl])[Cl].[Cl][Sn]([Cl])[Cl].[Pt].c1ccc([PH+](c2ccccc2)c2ccccc2)cc1.c1ccc([PH+](c2ccccc2)c2ccccc2)cc1` ?
## Result 0

Each recorded value in this set is attributed to PubChem BioAssay (NCI).
